Each recorded value in this set is attributed to the supplement of paper PMC11196671.

- Run description: BHET released, HPLC; higher = more BHET released; extreme values may be limits of the assay
- Experimental conditions: PET substrate: aFilm; 60 °C; pH 5.5; 24 h
The sequences listed here are annotated with their BHET released.
Report the figure in mM without appending any unit label.

Here are 4 sequences together with their reported answers.
Seq	Recorded number
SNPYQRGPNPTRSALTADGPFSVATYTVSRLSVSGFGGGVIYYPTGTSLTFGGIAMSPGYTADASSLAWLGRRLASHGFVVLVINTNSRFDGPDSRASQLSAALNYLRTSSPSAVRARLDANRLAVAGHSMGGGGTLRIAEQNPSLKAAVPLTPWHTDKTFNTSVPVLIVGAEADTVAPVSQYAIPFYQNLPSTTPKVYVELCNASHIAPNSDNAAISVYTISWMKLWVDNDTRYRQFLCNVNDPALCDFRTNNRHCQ [LCC-A2]	0
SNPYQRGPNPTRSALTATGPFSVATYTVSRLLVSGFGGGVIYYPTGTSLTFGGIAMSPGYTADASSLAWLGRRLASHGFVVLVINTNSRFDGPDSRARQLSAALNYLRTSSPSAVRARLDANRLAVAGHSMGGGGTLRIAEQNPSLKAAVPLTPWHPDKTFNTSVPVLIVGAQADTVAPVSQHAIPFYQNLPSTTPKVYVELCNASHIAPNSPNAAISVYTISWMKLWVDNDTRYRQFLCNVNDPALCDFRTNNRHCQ [LCC-ICCG I6M]	0.00212
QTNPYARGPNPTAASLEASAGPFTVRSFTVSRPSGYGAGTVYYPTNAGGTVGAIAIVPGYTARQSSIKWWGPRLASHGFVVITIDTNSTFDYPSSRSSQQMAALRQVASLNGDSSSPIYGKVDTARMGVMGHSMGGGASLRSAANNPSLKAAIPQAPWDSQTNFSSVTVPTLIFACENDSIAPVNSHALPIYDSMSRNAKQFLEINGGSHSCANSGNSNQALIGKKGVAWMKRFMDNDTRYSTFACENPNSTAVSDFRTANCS [DuraPETase]	0
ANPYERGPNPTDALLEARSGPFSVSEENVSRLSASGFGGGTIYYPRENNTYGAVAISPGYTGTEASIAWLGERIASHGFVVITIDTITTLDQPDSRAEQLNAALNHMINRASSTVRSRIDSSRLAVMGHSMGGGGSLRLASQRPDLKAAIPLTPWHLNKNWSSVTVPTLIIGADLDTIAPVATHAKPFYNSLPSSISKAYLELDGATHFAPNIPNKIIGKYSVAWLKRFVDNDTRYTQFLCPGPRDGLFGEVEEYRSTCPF [TfCut2]	0.00214

query: Give the measured BHET released of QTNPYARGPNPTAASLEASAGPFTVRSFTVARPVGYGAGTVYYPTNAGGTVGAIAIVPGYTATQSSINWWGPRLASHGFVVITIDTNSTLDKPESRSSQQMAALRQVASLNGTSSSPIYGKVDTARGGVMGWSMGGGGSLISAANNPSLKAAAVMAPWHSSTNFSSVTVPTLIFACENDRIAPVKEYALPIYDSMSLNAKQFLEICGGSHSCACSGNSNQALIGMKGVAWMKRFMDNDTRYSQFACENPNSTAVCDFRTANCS [HotPETase] .
result: 0

query: Form field: reported BHET released of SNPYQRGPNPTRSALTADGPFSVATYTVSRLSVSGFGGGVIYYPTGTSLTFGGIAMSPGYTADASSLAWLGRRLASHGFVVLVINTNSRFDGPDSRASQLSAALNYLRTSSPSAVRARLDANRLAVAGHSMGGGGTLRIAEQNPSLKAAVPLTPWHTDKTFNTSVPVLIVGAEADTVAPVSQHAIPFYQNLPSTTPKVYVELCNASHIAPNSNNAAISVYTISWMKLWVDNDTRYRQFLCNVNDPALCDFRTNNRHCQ [LCC-ICCG]
result: 0.00902

query: Return reported BHET released; argument: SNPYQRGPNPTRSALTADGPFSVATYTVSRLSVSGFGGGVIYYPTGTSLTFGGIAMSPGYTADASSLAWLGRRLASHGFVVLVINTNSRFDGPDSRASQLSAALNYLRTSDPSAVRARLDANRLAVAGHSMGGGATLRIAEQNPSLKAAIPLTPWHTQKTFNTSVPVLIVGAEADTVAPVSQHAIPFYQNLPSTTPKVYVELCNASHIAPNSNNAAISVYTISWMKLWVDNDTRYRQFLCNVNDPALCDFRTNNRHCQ [LCC-ICCG DAQI]
result: 0.0132

query: Which BHET released is listed for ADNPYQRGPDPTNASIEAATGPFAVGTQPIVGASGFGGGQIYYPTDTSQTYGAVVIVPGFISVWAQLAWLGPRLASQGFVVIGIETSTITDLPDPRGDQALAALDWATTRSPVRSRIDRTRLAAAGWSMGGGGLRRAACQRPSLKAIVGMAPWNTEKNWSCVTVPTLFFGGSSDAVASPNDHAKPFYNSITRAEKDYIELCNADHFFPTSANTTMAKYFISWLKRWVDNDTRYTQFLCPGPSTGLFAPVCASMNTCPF [CaPETaseM9] ?
result: 0

query: Which measured BHET released value corresponds to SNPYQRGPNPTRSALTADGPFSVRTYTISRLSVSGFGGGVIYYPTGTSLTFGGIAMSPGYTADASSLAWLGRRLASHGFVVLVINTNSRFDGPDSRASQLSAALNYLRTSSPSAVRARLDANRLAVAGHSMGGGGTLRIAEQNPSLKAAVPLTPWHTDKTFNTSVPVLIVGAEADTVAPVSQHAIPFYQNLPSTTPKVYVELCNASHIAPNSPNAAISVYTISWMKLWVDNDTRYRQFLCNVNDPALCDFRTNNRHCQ [LCC-ICCG RIP] ?
result: 0.00225

query: Given the sequence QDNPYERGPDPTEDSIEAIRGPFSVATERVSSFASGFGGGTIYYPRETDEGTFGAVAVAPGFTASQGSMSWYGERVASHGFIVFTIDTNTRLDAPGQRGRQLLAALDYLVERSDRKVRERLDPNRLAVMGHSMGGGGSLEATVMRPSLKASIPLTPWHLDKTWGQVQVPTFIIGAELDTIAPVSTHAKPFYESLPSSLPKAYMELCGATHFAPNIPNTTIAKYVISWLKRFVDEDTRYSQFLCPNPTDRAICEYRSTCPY [Cut190*SS] , what is its reported BHET released?
result: 0

query: Looking for the measured BHET released of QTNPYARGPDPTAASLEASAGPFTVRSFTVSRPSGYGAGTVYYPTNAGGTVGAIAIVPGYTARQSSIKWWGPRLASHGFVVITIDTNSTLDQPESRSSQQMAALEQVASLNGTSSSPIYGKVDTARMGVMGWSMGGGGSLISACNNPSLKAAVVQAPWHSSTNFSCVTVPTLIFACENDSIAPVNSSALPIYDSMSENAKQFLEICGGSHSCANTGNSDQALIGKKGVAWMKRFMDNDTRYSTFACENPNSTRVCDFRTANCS [Z1-PETase] , can you help?
result: 0
